Listed below: pKi values for each entry.
MEASURED TARGET: UniProt:Q72874
pKi: −log10 of the molar value.
MEASURED PROPERTY: pKi

>>> test_value("O=C(Cn1cccn1)c1cccc(CN2C(=O)N(Cc3ccc4[nH]ncc4c3)[C@H](Cc3ccccc3)[C@H](O)[C@@H](O)[C@H]2Cc2ccccc2)c1")
10.20
>>> test_value("Cc1cccc(NC(=O)c2cccc(CN3C(=O)N(Cc4ccc5[nH]ncc5c4)[C@H](Cc4ccccc4)[C@H](O)[C@@H](O)[C@H]3Cc3ccccc3)c2)n1")
10.40
>>> test_value("O=C(O)c1cccc(CN2C(=O)N(Cc3ccc4[nH]ncc4c3)[C@H](Cc3ccccc3)[C@H](O)[C@@H](O)[C@H]2Cc2ccccc2)c1")
10.31
>>> test_value("O=C1N(Cc2ccc(F)c(NCc3nc4ccccc4[nH]3)c2)[C@H](Cc2ccccc2)[C@H](O)[C@@H](O)[C@@H](Cc2ccccc2)N1Cc1ccc2[nH]ncc2c1")
10.55
>>> test_value("O=C(Cn1cncn1)c1cccc(CN2C(=O)N(Cc3ccc4[nH]ncc4c3)[C@H](Cc3ccccc3)[C@H](O)[C@@H](O)[C@H]2Cc2ccccc2)c1")
10.66
>>> test_value("O=C(Cn1nccn1)c1cccc(CN2C(=O)N(Cc3ccc4[nH]ncc4c3)[C@H](Cc3ccccc3)[C@H](O)[C@@H](O)[C@H]2Cc2ccccc2)c1")
10.34
